test_description: CC50 assay (CellTiter-Glo) in the replicon cells
Format: cell-based
condition_parameters: human, Huh-7 HCV replicon cells, 3 days incubation, 50% inhibition of cell growth
measured_quantity: CC50 at 3 days

* CCc1nc(N)nc2ccc(-c3cnc(N)cn3)nc12 | < 10 µM
* CC(C)Cc1nc(N)nc2ccc(-c3ccc(F)cc3)nc12 | > 20 µM
* CCc1nc(N)nc2ccc(-c3ccc(N4CCCC4=O)cc3)nc12 | > 20 µM
* CCCc1nc(N)nc2ccc(-c3ccc(NC(C)=O)cc3)nc12 | > 20 µM
* Nc1nc(C2CC2)c2nc(-c3ccc(F)cc3)ccc2n1 | 10 to 20 µM
* CCCc1nc(N)nc2ccc(-c3ccc(F)cc3)nc12 | > 20 µM
* C=CCCc1nc(N)nc2ccc(-c3ccc(F)cc3)nc12 | > 20 µM
* Nc1nc(CCC2OCCCO2)c2nc(-c3ccc(F)cc3)ccc2n1 | > 20 µM
* Cc1nc(N)nc2ccc(-c3ccc(F)cc3)nc12 | < 10 µM
* CC(C)c1nc(N)nc2ccc(-c3ccc(F)cc3)nc12 | > 20 µM
* CCc1nc(N)nc2ccc(-c3ccc(F)cc3)nc12 | < 10 µM
* Nc1nc(C2CC2)c2nc(-c3ccc(N4CCCC4=O)cc3)ccc2n1 | 10 to 20 µM

All figures here come from patent US8338435B2.
